B1: CPN1 (parent)
chain: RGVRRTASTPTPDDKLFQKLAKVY

Variants of: B1
Assay Notes: protein stability index of a GFP-peptide fusion (GPS, HEK-293T) (PSI 1-6); higher = more stable;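 also: lentivirally expressed fusions sorted by FACS into six bins by GFP to DsRed ratio, PSI derived from sequencing read proportions per bin multiplied by bin number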
Setup Conditions: c terminus: a fixed tail appended
Reported protein stability index values are given for each entry in this list.
Simply state the number, no unit and no words.

Request: // query protein stability index value for entry P12H
Result: 1.94

Request: Param item: R4Y
Result: 1.54

***
Request: // query protein stability index value for entry S8Y
Result: 3

Request: Param item: D14Q
Result: 2.35

Request: Param item: K15L
Result: 1.8

Request: Param item: T9Y
Result: 1.52

Request: Param item: T6Q
Result: 2

Request: Param item: R4I
Result: 2.56

Request: Param item: P10C
Result: 2.07

Request: Param item: R1P
Result: 2.27

Request: Param item: P12Y
Result: 2.94

Request: Param item: P12T
Result: 1.81

Request: Param item: K15G
Result: 2

Request: Param item: K22S
Result: 1.93

Request: Param item: Q18H
Result: 2.02

Request: Param item: R1V
Result: 2.34

Request: Param item: Y24K
Result: 3.95

Request: Param item: A21D
Result: 2.78

Request: Param item: L16Y
Result: 1.92

Request: Param item: D13E
Result: 1.24

Request: Param item: Y24P
Result: 2.72

Request: Param item: A7Y
Result: 2

The measured values listed here are drawn from the supplement of paper PMC10567573.
